Entry source: patent US20230381281A1

# target-or-system: human GLP-1 receptor (human, UniProt P43220 24-463)
# assay-info: cell-based or functional assay
Bridge positions count the residues as written; N and C are the ends. Square brackets hold non-standard residues; d marks the D form. Ends that are not written are not given here. Aib = CC(C)(N)C(=O)O
reported-metric: In vitro activity compared to native peptide (%) vs GLP-1
Answers are plain numbers, in %.

Some binders with recorded In vitro activity compared to native peptide (%) vs GLP-1:
Y[Aib]QGTFTSDYSKYLDECRAKEFVQWLLAQKGKKNDWKHNIT (bridge 16-20) [Triple agonist of SEQ ID NO: 23] = 4.01
H[Aib]QGTFTSDVSSYLLGQAAKQFIAWLVKGGGPSSGAPPPSC [Triple agonist of SEQ ID NO: 3] = 1.8

Continue with the binder presented below.
Item: H[Aib]QGTFTSDYSKYLDEKAAKEFVQWLLNTC (bridge 16-20) [Triple agonist of SEQ ID NO: 29] | In vitro activity compared to native peptide (%) vs GLP-1: 38.5
